# target.desc: FRMPD2_2, Q68DX3
# Sequence (Q68DX3 944-1038): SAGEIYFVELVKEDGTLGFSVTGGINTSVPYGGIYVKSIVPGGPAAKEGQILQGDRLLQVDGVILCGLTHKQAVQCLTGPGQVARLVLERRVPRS
# assay.explanation: holdup assay
# Set-up: key: below the threshold = too weak to quantify, mostly under pKd 3.1 to 4
# condition.parameters: plain residues with an end cap or a label only (N-terminal biotin on a linker: ado-ado)
recorded.metric: pKd

# annotated cases, reported pKd shown
binder="GIKKITSTAL [RPS6KA3, P51812]" recorded_metric=pKd result_value=3.5
binder="QRPYRRGSEI [KCNJ18, B7U540]" recorded_metric=pKd result_value=3.73
binder="MHIQEKGFHV [EPHA6, Q9UF33]" recorded_metric=pKd result_value="below the threshold"
binder="TISFTQTSQF [SLC1A1, P43005]" recorded_metric=pKd result_value="below the threshold"
binder="RDPPAEWTRV [PTPN18, Q99952]" recorded_metric=pKd result_value=4
binder="PTPDLPQTRV [KLHDC7A, Q5VTJ3]" recorded_metric=pKd result_value=3.8
binder="RSSGGDDFWF [KCNV1, Q6PIU1]" recorded_metric=pKd result_value="below the threshold"
binder="AAVENKVTDL [PLXNB1, O43157]" recorded_metric=pKd result_value="below the threshold"
binder="IDESKKEWLI [CNTNAP2, Q9UHC6]" recorded_metric=pKd result_value="below the threshold"
binder="KKMLQRRTLL [OR8G1, Q15617]" recorded_metric=pKd result_value="below the threshold"

Next item in the queue.
[Q] // query pKd value for entry REEPDHSTEV [CCRL2, O00421]
[A] 4.16
